tested on: Trichomonas vaginalis; test: Antimicrobial activity against Trichomonas vaginalis; assay type: functional, organism-based
Label rule met when pIC50 is at or above 7; otherwise label rule not met.

[
  {
    "substance.smiles": "CCN(CC)CCSc1nc2c(Cl)cc(Cl)cc2[nH]1",
    "label.value": "rule met"
  },
  {
    "substance.smiles": "OCCSc1nc2c(Cl)cc(Cl)cc2[nH]1",
    "label.value": "rule not met"
  },
  {
    "substance.smiles": "CN(C)CCSc1nc2c(Br)cc(Br)cc2[nH]1",
    "label.value": "rule not met"
  }
]

Query: Could you tell me if the measured pIC50 of Brc1cc(Br)c2nc(SCCN3CCOCC3)[nH]c2c1 reaches 7 or more?
Result: rule met

###

The following molecules are shown together with reported pIC50 values.
tested on: Giardia intestinalis; test: Antimicrobial activity against Giardia intestinalis; format: functional, organism-based, Giardia duodenalis

Solved entries:
[
  {
    "substance.smiles": "CCN(CC)CCSc1nc2c(Br)cc(Br)cc2[nH]1",
    "assayed.target": "Giardia intestinalis",
    "pIC50": 7.46
  },
  {
    "substance.smiles": "Clc1cc(Cl)c2nc(SCCN3CCCCC3)[nH]c2c1",
    "assayed.target": "Giardia intestinalis",
    "pIC50": 7.26
  },
  {
    "substance.smiles": "CCN(CC)CCSc1nc2c(Cl)cc(Cl)cc2[nH]1",
    "assayed.target": "Giardia intestinalis",
    "pIC50": 7.72
  },
  {
    "substance.smiles": "CN(C)CCSc1nc2c(Cl)cc(Cl)cc2[nH]1",
    "assayed.target": "Giardia intestinalis",
    "pIC50": 7.68
  },
  {
    "substance.smiles": "O=C(c1ccccc1)c1ccc2[nH]c(C(F)(F)F)nc2c1",
    "assayed.target": "Giardia intestinalis",
    "pIC50": 5.64
  },
  {
    "substance.smiles": "CN(C)CCCSc1nc2c(Cl)cc(Cl)cc2[nH]1",
    "assayed.target": "Giardia intestinalis",
    "pIC50": 7.14
  }
]

Query: Tell us which pIC50 value is on record for CN(C)CCSc1nc2c(Br)cc(Br)cc2[nH]1
Result: 7.54

###

system: Trichomonas vaginalis; experiment: Antimicrobial activity against Trichomonas vaginalis; assay type: functional, organism-based
Quick list: pIC50 per entry.
// return a plain number; no unit text

Please review the entries below; each comes with its answer.
[
  {
    "substance.smiles": "FC(F)(F)c1nc2c(Br)cc(Br)cc2[nH]1",
    "observed": 6.72
  },
  {
    "substance.smiles": "O=[N+]([O-])c1ccc(CCSc2nc3c(Br)cc(Br)cc3[nH]2)cc1",
    "observed": 8.48
  },
  {
    "substance.smiles": "Brc1cc(Br)c2nc(SCCN3CCCCC3)[nH]c2c1",
    "observed": 7.69
  },
  {
    "substance.smiles": "CN(C)CCCSc1nc2c(Br)cc(Br)cc2[nH]1",
    "observed": 7.99
  }
]

The record that follows has no pIC50 shown yet.
Query: Identify measured pIC50 corresponding to O=[N+]([O-])c1ccc(CCSc2nc3c(Cl)cc(Cl)cc3[nH]2)cc1
Result: 7.96

###

test system: Giardia intestinalis; assay: Antimicrobial activity against Giardia intestinalis; format: functional, organism-based, Giardia duodenalis
endpoint.name: pIC50

[
  {
    "substance.smiles": "FC(F)(F)c1nc2cc(Br)ccc2[nH]1",
    "pIC50": 6.19
  },
  {
    "substance.smiles": "O=[N+]([O-])c1ccc(CCSc2nc3c(Br)cc(Br)cc3[nH]2)cc1",
    "pIC50": 7.43
  },
  {
    "substance.smiles": "FC(F)(F)c1nc2c(Br)cc(Br)cc2[nH]1",
    "pIC50": 6.6
  },
  {
    "substance.smiles": "Brc1cc(Br)c2nc(SCCN3CCOCC3)[nH]c2c1",
    "pIC50": 7.23
  },
  {
    "substance.smiles": "Brc1cc(Br)c2nc(SCCN3CCCCC3)[nH]c2c1",
    "pIC50": 6.9
  },
  {
    "substance.smiles": "OCCSc1nc2c(Br)cc(Br)cc2[nH]1",
    "pIC50": 6.98
  }
]

Query: Give the value of pIC50 reported for the following: OCCSc1nc2c(Cl)cc(Cl)cc2[nH]1
Result: 7.42

Query: Input CN(C)CCCSc1nc2c(Br)cc(Br)cc2[nH]1 , output reported pIC50.
Result: 7.69

Query: Return value of pIC50 for input FC(F)(F)c1nc2c(Br)c(Br)c(Br)cc2[nH]1 , no commentary.
Result: 6.85

Query: Let me know recorded pIC50 for CCCSc1ccc2[nH]c(C(F)(F)F)nc2c1 , thanks.
Result: 5.82

Query: State its pIC50: Clc1cc(Cl)c2nc(SCCN3CCOCC3)[nH]c2c1
Result: 7.41

Query: Retrieve pIC50 measured for O=[N+]([O-])c1ccc(CCSc2nc3c(Cl)cc(Cl)cc3[nH]2)cc1 and print it.
Result: 7.09

###

test system: Trichomonas vaginalis; assay: Antimicrobial activity against Trichomonas vaginalis; type: functional, organism-based
The entries below come with measured pIC50 values attached.
No unit in the answer, please; the number alone is enough.

Query: # return recorded pIC50 for input FC(F)(F)c1nc2c(Br)c(Br)c(Br)cc2[nH]1
Result: 6.57

Query: Output measured pIC50 for this item: FC(F)(F)c1nc2cc(Br)ccc2[nH]1
Result: 5.8

Query: Report pIC50, nothing else, for this compound: Clc1cc(Cl)c2nc(SCCN3CCCCC3)[nH]c2c1
Result: 7.14

Query: Quickly give me recorded pIC50 for O=C(c1ccccc1)c1ccc2[nH]c(C(F)(F)F)nc2c1
Result: 4.55

Query: Output measured pIC50 for this item: Clc1cc(Cl)c2nc(SCCN3CCOCC3)[nH]c2c1
Result: 7.29

Query: Give the measured pIC50 for CCN(CC)CCSc1nc2c(Br)cc(Br)cc2[nH]1
Result: 7.53

Query: Output measured pIC50 for this item: CCCSc1ccc2[nH]c(C(F)(F)F)nc2c1
Result: 6.46
